tested_on: human M1 receptor (hCHRM1) (Homo sapiens, UniProt P11229)
Construct: expressed in transfected cells
Sequence (P11229 whole entry): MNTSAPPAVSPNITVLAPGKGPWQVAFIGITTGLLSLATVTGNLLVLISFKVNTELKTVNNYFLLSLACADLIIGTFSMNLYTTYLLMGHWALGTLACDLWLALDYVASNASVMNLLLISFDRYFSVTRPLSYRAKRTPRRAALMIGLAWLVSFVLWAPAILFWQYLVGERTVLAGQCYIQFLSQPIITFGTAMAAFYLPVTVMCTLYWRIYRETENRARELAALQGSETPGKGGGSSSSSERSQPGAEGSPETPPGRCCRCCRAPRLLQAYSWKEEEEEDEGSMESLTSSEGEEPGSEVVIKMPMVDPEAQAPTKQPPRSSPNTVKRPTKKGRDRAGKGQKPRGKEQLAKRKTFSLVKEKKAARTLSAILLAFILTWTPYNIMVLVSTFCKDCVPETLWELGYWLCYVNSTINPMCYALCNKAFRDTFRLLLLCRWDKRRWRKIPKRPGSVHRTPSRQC
assay_details: Measurement of M1 receptor positive allosteric modulator (M1PAM) activity (calcium fluorescence, Fluo-4)
Type: cell-based
test_parameters: test compound 10 μM with acetylcholine at EC20; 100% = 1 μM acetylcholine, 0% = DMSO; CHO-K1 cells expressing hCHRM1
measure_name: activity (%) at 10 μM

molecule: Cc1c(Cc2ccc(-c3cscn3)cc2)cc(C(=O)N[C@H]2COCC[C@@H]2O)c(F)c1C [Example 32]
activity (%) at 10 μM: 101

molecule: Cc1c(Cc2ccc(-c3cn(C)nn3)cc2)cc(C(=O)N[C@H]2CCCC[C@@H]2O)c(OC(F)F)c1C [Example 18]
activity (%) at 10 μM: 97

molecule: Cc1c(Cc2ccc(-n3cccn3)nc2)cc(C(=O)N[C@H]2CCCC[C@@H]2O)c(F)c1C [Example 20]
activity (%) at 10 μM: 97

###

tested_on: human M1 receptor (hCHRM1) (Homo sapiens)
Construct: expressed in transfected cells
assay_details: Measurement of M1 receptor positive allosteric modulator (M1PAM) activity (calcium fluorescence, Fluo-4)
Format: cell-based
test_parameters: test compound 10 μM with acetylcholine at EC20; 100% = 1 μM acetylcholine, 0% = DMSO; CHO-K1 cells expressing hCHRM1
Procedure: Measurement of M1 Receptor Positive Allosteric Modulator (M1PAM) Activity The activity of a test compound in the presence of acetylcholine at EC20 concentration (final concentration 0.8-1.0 nM), which affords an action corresponding to about 20% of the maximum activity, was measured as PAM activity. The method is as follows. […]
measure_name: activity (%) at 10 μM

molecule: COc1c(C(=O)N[C@H]2CCOC[C@@H]2O)cc(Cc2ccc(-c3cn(C)nn3)cc2)c(C)c1C
readout_value: 95
//
molecule: Cc1c(Cc2ccc(-c3cn(C)nn3)cc2)cc(C(=O)N[C@H]2CCCC[C@@H]2O)c(OC(C)C)c1C
readout_value: 99
//
molecule: COc1c(C(=O)N[C@H]2COCC[C@@H]2O)cc(Cc2ccc(-c3cn(C)nc3C)cc2)c(C)c1C
readout_value: 97
//
molecule: COc1c(C(=O)N[C@H]2CCCC[C@@H]2O)cc(Cc2ccc(-c3cn(C)nn3)cc2)c(C)c1C (single isomer, unassigned) [Example 10]
readout_value: 106
//
molecule: COc1c(C(=O)N[C@H]2CCC[C@@H]2O)cc(Cc2ccc(-n3cccn3)cc2)c(C)c1C (relative stereo)
readout_value: 96
//
molecule: COc1c(C(=O)NCC2CCCO2)cc(Cc2ccc(-c3cn(C)nn3)cc2)c(C)c1C (stereo not drawn)
readout_value: 107
//
molecule: COc1c(C(=O)N[C@H]2CCC[C@@H]2O)cc(Cc2ccc(-c3ccn(C)n3)nc2)c(C)c1C
readout_value: 95
//
molecule: COc1c(C(=O)N[C@H]2COCC[C@@H]2O)cc(Cc2ccc(-c3cn(C)nc3C)nc2)c(C)c1C
readout_value: 100
//
molecule: COc1c(C(=O)N[C@H]2CCC[C@@H]2O)cc(Cc2ccc(-c3cn(C)nn3)cc2)c(C)c1C (relative stereo)
readout_value: 108
//
molecule: Cc1c(Cc2ccc(-n3cccn3)cc2)cc(C(=O)N[C@H]2COCC[C@@H]2O)c(F)c1F
readout_value: 97
//
molecule: COc1c(C(=O)N[C@H]2COCC[C@@H]2O)cc(Cc2ccc(-c3ccn(C)n3)cc2)c(C)c1C
readout_value: 99
//
molecule: CCOc1c(C(=O)N[C@H]2CCCC[C@@H]2O)cc(Cc2ccc(-c3cn(C)nn3)cc2)c(C)c1C
readout_value: 100
//
molecule: COc1c(C(=O)N[C@H]2CCCC[C@@H]2O)cc(Cc2ccc(-c3cn(C)nn3)cc2)c(C)c1C (relative stereo) [Example 5]
readout_value: 105
//
molecule: COc1c(C(=O)N[C@H]2CCCC[C@@H]2O)cc(Cc2ccc(-n3ccnn3)cc2)c(C)c1C
readout_value: 98
//
molecule: Cc1c(Cc2ccc(-c3cn(C)nn3)cc2)cc(C(=O)N[C@H]2CCCC[C@@H]2O)c(OCC2CC2)c1C
readout_value: 99
